Value source: patent US9932331B2

- system_name: human NHE3 (Homo sapiens, UniProt P48764)
- Sequence (P48764 26-834): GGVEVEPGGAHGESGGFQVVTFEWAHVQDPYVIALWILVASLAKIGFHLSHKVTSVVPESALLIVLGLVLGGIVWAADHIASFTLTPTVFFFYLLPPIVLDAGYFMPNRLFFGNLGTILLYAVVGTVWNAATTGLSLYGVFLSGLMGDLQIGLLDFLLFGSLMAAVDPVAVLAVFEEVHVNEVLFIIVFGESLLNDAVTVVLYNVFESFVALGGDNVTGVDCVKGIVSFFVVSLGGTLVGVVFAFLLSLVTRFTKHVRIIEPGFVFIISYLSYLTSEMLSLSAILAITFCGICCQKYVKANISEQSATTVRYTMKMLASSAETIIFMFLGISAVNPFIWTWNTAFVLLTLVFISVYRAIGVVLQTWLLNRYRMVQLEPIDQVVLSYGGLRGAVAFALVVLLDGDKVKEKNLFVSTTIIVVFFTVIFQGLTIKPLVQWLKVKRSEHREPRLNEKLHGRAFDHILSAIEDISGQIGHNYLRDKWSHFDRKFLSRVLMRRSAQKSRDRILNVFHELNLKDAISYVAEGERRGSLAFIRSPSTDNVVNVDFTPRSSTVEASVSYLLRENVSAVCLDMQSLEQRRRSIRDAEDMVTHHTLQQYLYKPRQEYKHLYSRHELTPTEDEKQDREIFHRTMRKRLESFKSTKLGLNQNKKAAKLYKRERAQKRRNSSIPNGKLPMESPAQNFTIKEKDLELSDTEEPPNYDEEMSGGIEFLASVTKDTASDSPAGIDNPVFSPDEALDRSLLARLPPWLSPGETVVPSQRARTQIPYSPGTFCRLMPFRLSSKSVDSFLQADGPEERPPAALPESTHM
- measurement_description: NHE3 inhibition test (recovery of intracellular pH in cell line stably expressing human NHE3)
- setup_conditions: OK cells deficient in endogenous NHE stably expressing human NHE3; BCECF fluorescence, initial rate of pH recovery; read-out: human NHE3 inhibitory activity IC50
Counter-ions that a name gives are not always drawn.
metric: IC50 (nM)

Use the examples below as a reference point.
CN1Cc2c(Cl)cc(Cl)cc2[C@H](c2cccc(-c3cn(CCOCCOCCOCCNC(=O)Nc4ccc(NC(=O)NCCOCCOCCOCCn5cc(-c6cccc([C@@H]7CN(C)Cc8c(Cl)cc(Cl)cc87)c6)nn5)cc4)nn3)c2)C1 | 5.6
CN1Cc2c(Cl)cc(Cl)cc2[C@H](c2cccc(-c3cnnc(NCCOCCOCCOCCNC(=O)[C@H](O)[C@@H](O)C(=O)NCCOCCOCCOCCNc4cc(-c5cccc([C@@H]6CN(C)Cc7c(Cl)cc(Cl)cc76)c5)cnn4)c3)c2)C1 | 6.8
CN1Cc2c(Cl)cc(Cl)cc2[C@H](c2cccc(-c3ccc(NCCOCCOCCNC(=O)NCCCCNC(=O)NCCOCCOCCNc4ccc(-c5cccc([C@@H]6CN(C)Cc7c(Cl)cc(Cl)cc76)c5)cn4)nc3)c2)C1 | 6.8
Cc1cc(-c2cccc([C@@H]3CN(C)Cc4c(Cl)cc(Cl)cc43)c2)on1 [Example 5-1, hydrochloride] | 760
CN1Cc2c(Cl)cc(Cl)cc2[C@H](c2cccc(-c3cn(CCOCCOCCOCCOCCNC(=O)[C@@H](O)[C@H](O)[C@H](O)[C@@H](O)C(=O)NCCOCCOCCOCCOCCn4cc(-c5cccc([C@@H]6CN(C)Cc7c(Cl)cc(Cl)cc76)c5)nn4)nn3)c2)C1 [Example 6-11, hydrochloride] | 1.4

a. CN1Cc2c(Cl)cc(Cl)cc2[C@H](c2cccc(-c3cn[nH]c3)c2)C1
b. CN1Cc2c(Cl)cc(Cl)cc2[C@H](c2cccc(-c3cn(CCOCCOCCNC(=O)[C@@H](O)[C@H](O)[C@H](O)[C@@H](O)C(=O)NCCOCCOCCn4cc(-c5cccc([C@@H]6CN(C)Cc7c(Cl)cc(Cl)cc76)c5)nn4)nn3)c2)C1 [Example 6-7, hydrochloride]
c. CN1Cc2c(Cl)cc(Cl)cc2[C@H](c2cccc(-c3cncc(NCCOCCOCCOCCNC(=O)NCCCCNC(=O)NCCOCCOCCOCCNc4cncc(-c5cccc([C@@H]6CN(C)Cc7c(Cl)cc(Cl)cc76)c5)n4)n3)c2)C1
d. CN1Cc2c(Cl)cc(Cl)cc2[C@H](c2cccc(-c3cncc(NCCOCCOCCNC(=O)CCC(=O)NCCOCCOCCNc4cncc(-c5cccc([C@@H]6CN(C)Cc7c(Cl)cc(Cl)cc76)c5)n4)n3)c2)C1
Output the entries ranked by IC50 from maximum down to minimum. Record the ranking as a list of labels in the requested order.
a, d, c, b
